Every entry's value here was drawn from ChEMBL document CHEMBL5036375.

# Experiment notes: Lipophilicity, logD of the compound between 1-octanol and PBS pH 7.4 at 10 mM by LC-MS analysis
# Assay type: physicochemical
# Measurement context: 1-octanol/PBS

Sample smiles	logD at 10000 µM
CNCCNC(=O)c1cc2c([nH]c3c(C)cccc32)c(-c2ccc(Cl)c(Cl)c2)n1.Cl	3.3

---

# Experiment notes: Volume of distribution in rat at 10 mg/kg , iv
# Assay type: ADME, organism-based
# Measurement context: in vivo

Sample smiles	Vd
CNCCNC(=O)c1cc2c([nH]c3c(C)cccc32)c(-c2ccc(Cl)c(Cl)c2)n1.Cl	21.8 L/kg

---

# Test system: Plasmodium falciparum
# Experiment notes: Antimalarial activity against Plasmodium falciparum 3D7A incubated for 48 hrs by [3H]-hypoxanthine incorporation assay
# Assay type: functional, organism-based
# Measurement context: 3D7
pIC50: −log10 of the molar value.

Sample smiles	Measurement target	pIC50
CNCCNC(=O)c1cc2c([nH]c3c(C)cccc32)c(-c2ccc(Cl)c(Cl)c2)n1.Cl	Plasmodium falciparum	7.15

---

# Measurement target: UniProt Q12809
# Sequence (Q12809 whole entry): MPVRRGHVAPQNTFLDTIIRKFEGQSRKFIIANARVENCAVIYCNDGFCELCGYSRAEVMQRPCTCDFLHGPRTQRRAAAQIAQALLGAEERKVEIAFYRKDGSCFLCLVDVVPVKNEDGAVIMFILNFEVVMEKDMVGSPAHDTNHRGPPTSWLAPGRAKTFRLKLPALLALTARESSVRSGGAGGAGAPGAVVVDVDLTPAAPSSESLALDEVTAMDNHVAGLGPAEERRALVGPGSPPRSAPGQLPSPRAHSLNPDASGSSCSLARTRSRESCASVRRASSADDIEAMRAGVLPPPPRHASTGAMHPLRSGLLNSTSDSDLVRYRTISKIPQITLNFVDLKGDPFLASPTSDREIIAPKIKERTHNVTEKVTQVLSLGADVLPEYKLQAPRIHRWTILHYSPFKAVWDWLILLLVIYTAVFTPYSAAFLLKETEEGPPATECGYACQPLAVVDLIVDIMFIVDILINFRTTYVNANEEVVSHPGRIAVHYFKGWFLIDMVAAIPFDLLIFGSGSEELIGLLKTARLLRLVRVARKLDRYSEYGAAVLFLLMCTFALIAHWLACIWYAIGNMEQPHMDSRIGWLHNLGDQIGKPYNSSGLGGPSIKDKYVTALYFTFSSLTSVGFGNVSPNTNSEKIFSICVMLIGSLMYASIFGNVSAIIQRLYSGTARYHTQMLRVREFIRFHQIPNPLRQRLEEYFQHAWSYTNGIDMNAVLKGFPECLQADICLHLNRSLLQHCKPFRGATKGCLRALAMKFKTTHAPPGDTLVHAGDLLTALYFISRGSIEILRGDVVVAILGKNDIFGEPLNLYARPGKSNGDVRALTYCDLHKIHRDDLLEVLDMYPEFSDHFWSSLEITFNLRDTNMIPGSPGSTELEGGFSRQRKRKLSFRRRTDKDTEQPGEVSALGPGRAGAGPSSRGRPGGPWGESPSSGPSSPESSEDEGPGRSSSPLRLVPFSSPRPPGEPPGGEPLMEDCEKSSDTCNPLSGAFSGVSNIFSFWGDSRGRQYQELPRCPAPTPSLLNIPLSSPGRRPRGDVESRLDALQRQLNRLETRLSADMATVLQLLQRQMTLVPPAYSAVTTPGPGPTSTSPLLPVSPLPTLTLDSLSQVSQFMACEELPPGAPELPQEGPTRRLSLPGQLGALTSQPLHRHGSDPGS
# Experiment notes: Inhibition of human ERG expressed in HEK-293 cells by patch clamp method
Recorded metric: IC50 (nM)

Sample smiles	Measured number
CNCCNC(=O)c1cc2c([nH]c3c(C)cccc32)c(-c2ccc(Cl)c(Cl)c2)n1.Cl	510

---

# Test system: Plasmodium falciparum
# Experiment notes: Antimalarial activity against Plasmodium falciparum 3D7 (MRA-102) incubated for 72 hrs by Lactate dehydrogenase activity
# Type: functional, organism-based
# Measurement context: 3D7 MRA-102, 72 h

Sample smiles	Measurement target	IC50 [nM]
CNCCNC(=O)c1cc2c([nH]c3c(C)cccc32)c(-c2ccc(Cl)c(Cl)c2)n1.Cl	Plasmodium falciparum	117

---

# Tested on: Plasmodium falciparum
# Experiment notes: Antimalarial activity against Plasmodium falciparum 3D7 (MRA-102) infected in human O-postive erythrocytes measured after 72 hrs by SYBR green I staining based fluorescence assay
# Assay type: functional, organism-based
# Measurement context: 3D7 MRA-102, 72 h

Sample smiles	Units	EC50
CNCCNC(=O)c1cc2c([nH]c3c(C)cccc32)c(-c2ccc(Cl)c(Cl)c2)n1.Cl	nM	53

---

# Experiment notes: Stability in CD-1 mouse plasma at 1 hour by LC-MS analysis a
# Format: ADME, cell-free
# Measurement context: read-out: Stability

Sample smiles	remaining at 1 h
CNCCNC(=O)c1cc2c([nH]c3c(C)cccc32)c(-c2ccc(Cl)c(Cl)c2)n1.Cl	100%

---

# Experiment notes: Half life in CD-1 mouse liver microsomes after 60 mins by LC-MS analysis
# Assay type: ADME, Microsome

Sample smiles	Units	half-life
CNCCNC(=O)c1cc2c([nH]c3c(C)cccc32)c(-c2ccc(Cl)c(Cl)c2)n1.Cl	h	1.83
